Taken from ChEMBL document CHEMBL1961873.

Target: Ephrin type-B receptor 3 (Homo sapiens);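 note: values are mean percent inhibition of EPHB3 from the GSK PKIS screening panel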
Details: at 1 µM
Metric name: inhibition (%)
Please reply with the bare figure in % and do not write the unit itself.

Recorded inhibition for Cc1nn(C)c2cc(N(C)c3ccnc(Nc4cccc(S(N)(=O)=O)c4)n3)ccc12 , please?
4.43

Recorded inhibition for NC(=O)c1ccc(-c2nc(-c3ccccn3)c(-c3ccc4c(c3)OCO4)[nH]2)cc1 , please?
1.89

Recorded inhibition for Cc1cc(O)cc(C)c1/C=C/c1cncc(-c2nn[nH]n2)c1 , please?
5.69

Recorded inhibition for COc1cc2ncn(-c3cc(OCc4ccccc4C(F)(F)F)c(C(N)=O)s3)c2cc1OC , please?
0.77

Recorded inhibition for CC1=C(C(=O)Nc2ccc3[nH]ncc3c2)C(c2ccc3ccccc3c2)CC(=O)N1 (stereo not given) , please?
4.54
